METHOD SUMMARY: Caco-2 Assay (Papp A to B)
CONDITIONS USED: human, Caco-2, pH 7.4
For each entry below, report its Papp A→B at 2 h, 2 μM value.
Value expressed in ×10⁻⁶ cm/s; do not type the unit.

compound `CC(=O)N1CC[C@@]2(CN(Cc3ccc(Nc4ncc(F)c(-c5cc(F)c6nc(C)n(C(C)C)c6c5)n4)nc3)CCO2)C1` , Papp A→B at 2 h, 2 μM observed: 0.59

Please fill in: Papp A→B at 2 h, 2 μM reported for `CCC[C@@]1(C)CN(Cc2ccc(Nc3ncc(F)c(-c4cc(F)c5nc(C)n(C(C)C)c5c4)n3)nc2)CCN1` = 0.04

`CNCC[C@@]1(C)CN(Cc2ccc(Nc3ncc(F)c(-c4cc(F)c5nc(C)n(C(C)C)c5c4)n3)nc2)CCO1` has a reported Papp A→B at 2 h, 2 μM of 0.05

Consider `Cc1nc2c(F)cc(-c3nc(Nc4ccc(CN5CCO[C@@](C)(C[C@H](C)N(C)C)C5)cn4)ncc3F)cc2n1C(C)C` . Its measured Papp A→B at 2 h, 2 μM is 0.32

Consider CCN(CC)CCC1(C)CN(Cc2ccc(Nc3ncc(F)c(-c4cc(F)c5nc(C)n(C(C)C)c5c4)n3)nc2)CCO1 (stereo in doubt) . Its measured Papp A→B at 2 h, 2 μM is 0.05

Looking up CC(=O)c1c(C)c2cnc(Nc3ccc(N4CCNCC4)cn3)nc2n(C2CCCC2)c1=O [Palbociclib, reference compound] , I see its Papp A→B at 2 h, 2 μM listed as 0.27

Item: `COC(=O)N1CC[C@@]2(CN(Cc3ccc(Nc4ncc(F)c(-c5cc(F)c6nc(C)n(C(C)C)c6c5)n4)nc3)CCO2)C1` | Papp A→B at 2 h, 2 μM: 3.94

Entry `CC(=O)N1CC[C@]2(CN(Cc3ccc(Nc4ncc(F)c(-c5cc(F)c6nc(C)n(C(C)C)c6c5)n4)nc3)CCO2)C1` ; Papp A→B at 2 h, 2 μM = 0.39

The compound listed as `Cc1nc2c(F)cc(-c3nc(Nc4ccc(CN5CCO[C@](C)(CCNCC(F)(F)F)C5)cn4)ncc3F)cc2n1C(C)C` has a reported Papp A→B at 2 h, 2 μM of 2.14

The compound identified as `Cc1nc2c(F)cc(-c3nc(Nc4ccc(CN5CCO[C@](C)(CCN6CCC6)C5)cn4)ncc3F)cc2n1C(C)C` registered its Papp A→B at 2 h, 2 μM at 0.02

Summary for this compound, `CC[C@@]1(CCN(C)C)CN(Cc2ccc(Nc3ncc(F)c(-c4cc(F)c5nc(C)n(C(C)C)c5c4)n3)nc2)CCO1` : Papp A→B at 2 h, 2 μM is 0.07

The reported value for `Cc1nc2c(F)cc(-c3nc(Nc4ccc(CN5CCO[C@](C)(CCN(C)C)C5)cn4)ncc3F)cc2n1C(C)C` in terms of Papp A→B at 2 h, 2 μM is 0.11

Measured Papp A→B at 2 h, 2 μM of `Cc1nc2c(F)cc(-c3nc(Nc4ccc(CN5CCO[C@](C)(C[C@@H](C)N(C)C)C5)cn4)ncc3F)cc2n1C(C)C` : 0.03

Note to self: Papp A→B at 2 h, 2 μM recorded for `Cc1nc2c(F)cc(-c3nc(Nc4ccc(CN5CCO[C@]6(CCN(C)C6)C5)cn4)ncc3F)cc2n1C(C)C` was 0.17

Value of measured Papp A→B at 2 h, 2 μM for the entry `Cc1nc2c(F)cc(-c3nc(Nc4ccc(CN5CCO[C@](C)(CCN6CC[C@H](F)C6)C5)cn4)ncc3F)cc2n1C(C)C` : 0.69

Papp A→B at 2 h, 2 μM for `Cc1nc2c(F)cc(-c3nc(Nc4ccc(CN5CCO[C@](C)(CCN(C)CC(F)F)C5)cn4)ncc3F)cc2n1C(C)C` is 1.95

Papp A→B at 2 h, 2 μM in this record for `Cc1nc2c(F)cc(-c3nc(Nc4ccc(CN5CCO[C@]6(CCN(S(C)(=O)=O)C6)C5)cn4)ncc3F)cc2n1C(C)C` : 1.08

Record `Cc1nc2c(F)cc(-c3nc(Nc4ccc(CN5CCO[C@](C)(C[C@H](C)N(C)C)C5)cn4)ncc3F)cc2n1C(C)C` . Reported Papp A→B at 2 h, 2 μM: 0.06

Field Papp A→B at 2 h, 2 μM (entry Cc1nc2c(F)cc(-c3nc(Nc4ccc(CN5CCO[C@@](C)(C[C@@H](C)N(C)C)C5)cn4)ncc3F)cc2n1C(C)C [Compound A28, methanesulfonate] ) reads 0.09

Per the records, this compound ( `COC1(C)CN(CC[C@]2(C)CN(Cc3ccc(Nc4ncc(F)c(-c5cc(F)c6nc(C)n(C(C)C)c6c5)n4)nc3)CCO2)C1` ) has Papp A→B at 2 h, 2 μM equal to 0.11

So for `Cc1nc2c(F)cc(-c3nc(Nc4ccc(CN5CCO[C@](C)(CCN6CC(C)(O)C6)C5)cn4)ncc3F)cc2n1C(C)C` , the logged Papp A→B at 2 h, 2 μM turned out to be 0.01

get_value(item= `Cc1nc2c(F)cc(-c3nc(Nc4ccc(CN5CCNC(C)(C)C5)cn4)ncc3F)cc2n1C(C)C` , readout=Papp A→B at 2 h, 2 μM) returns 0.01

Recorded result, `Cc1nc2c(F)cc(-c3nc(Nc4ccc(CN5CCO[C@](C)(CCNC(C)(C)C)C5)cn4)ncc3F)cc2n1C(C)C` , Papp A→B at 2 h, 2 μM: 0.04

Item: `Cc1nc2c(F)cc(-c3nc(Nc4ccc(CN5CCO[C@](C)(CCN6CCCC6)C5)cn4)ncc3F)cc2n1C(C)C` | Papp A→B at 2 h, 2 μM: 0.01

Kindly note the recorded Papp A→B at 2 h, 2 μM for CCN1CCN(Cc2ccc(Nc3ncc(F)c(-c4cc(F)c5nc(C)n(C(C)C)c5c4)n3)nc2)CC1 [Abemaciclib MS, Abemaciclib, reference compound] , which is 1.86

Record `Cc1nc2c(F)cc(-c3nc(Nc4ccc(CN5CC6(C5)CS(=O)(=O)C6)cn4)ncc3F)cc2n1C(C)C` , field Papp A→B at 2 h, 2 μM: 0.15

The compound identified as `Cc1nc2c(F)cc(-c3nc(Nc4ccc(CN5CCO[C@@](C)(CCO)C5)cn4)ncc3F)cc2n1C(C)C` registered its Papp A→B at 2 h, 2 μM at 3.25
